molecular target: hTREM2 (Homo sapiens, UniProt Q9NZC2); experiment: Phospho-Syk AlphaScreen/AlphaLISA assay in TREM2 and DAP12 overexpressing HEK293 cells (Example A1); format: cell-based; parameters: expressed in transfected cells; conditions: HEK293 cells
Sequence (Q9NZC2 19-230): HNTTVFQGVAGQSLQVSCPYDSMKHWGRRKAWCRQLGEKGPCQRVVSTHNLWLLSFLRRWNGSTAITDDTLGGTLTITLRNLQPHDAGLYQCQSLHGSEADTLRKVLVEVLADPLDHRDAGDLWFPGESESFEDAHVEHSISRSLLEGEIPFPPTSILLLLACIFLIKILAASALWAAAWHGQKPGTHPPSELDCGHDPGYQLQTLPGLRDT
Sequence (O43914 22-113 partner): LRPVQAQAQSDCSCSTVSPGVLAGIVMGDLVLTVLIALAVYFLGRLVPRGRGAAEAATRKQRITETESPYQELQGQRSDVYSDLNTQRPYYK
assayEndpoint: Emax

# count of solved cases: 5
>  <molecule>
CCCn1c(C)nc2cc(N3CCO[C@@H](c4ccnn4C)C3)nc(-c3ccc(Cl)cc3F)c2c1=O

>  <Emax>
++++ (Emax>300)

$$$$
>  <molecule>
Cc1nc2cc(N3CCc4cnccc4C3)nc(-c3ccc(Cl)cc3F)c2c(=O)n1C

>  <Emax>
+++ (Emax>200 and ≤300)

$$$$
>  <molecule>
Cc1nc2cc(N3CCO[C@H](c4cnn(C)c4)C3)nc(-c3ccc(Cl)cc3F)c2c(=O)n1C [Example 2]

>  <Emax>
+++ (Emax>200 and ≤300)

$$$$
>  <molecule>
CCCn1c(C)nc2cc(N3CCOC(c4cnn(C)c4)C3)nc(-c3ncc(Cl)cc3F)c2c1=O (stereo not shown)

>  <Emax>
++++ (Emax>300)

$$$$
>  <molecule>
Cc1nc2cc(N3CCC[C@@H](c4ccncc4)C3)nc(-c3ccc(Cl)cc3F)c2c(=O)n1C (single isomer, unassigned)

>  <Emax>
++++ (Emax>300)

$$$$

Value wanted: Emax (hTREM2 (Homo sapiens, UniProt Q9NZC2)) of entry Cc1noc([C@H]2CCCN(c3cc4nc(C)n(C)c(=O)c4c(-c4ccc(Cl)cc4F)n3)C2)n1 [Example 230]
++++ (Emax>300)

Source of measurements: patent US20250388574A1
